Tested on: P. falciparum 3D7 gametocytes
ASSAY_PROCEDURE: alamarBlue gametocyte viability assay, strain 3D7
Assay type: cell-based, Plasmodium falciparum
CONDITION_NOTES: Malaria Box; DMSO set at 0%, 100 nM epoxomicin set at -100%
Hi! Could you tag entries with Max Resp below -50% as satisfied, and those at or above as not satisfied? Much appreciated.

MOLECULE: CCOC(=O)c1cnc2ccc(Cl)cc2c1NCCCN(C)C [MMV006882]
CAT: not satisfied
//
MOLECULE: Cc1ccc(-c2cc3c(nn2)-c2ccccc2C3=O)cc1 [MMV666021]
CAT: not satisfied
//
MOLECULE: Cc1ccc(Cl)cc1N1CCN(CCCNC(=O)C2CCN(c3nc4ccccc4[nH]3)CC2)CC1 [MMV019746]
CAT: satisfied
//
MOLECULE: COc1ccc(CN2CCCC(C(=O)c3ccc(C(F)(F)F)cc3)C2)c(O)c1 (stereo not shown) [MMV666060]
CAT: not satisfied
//
MOLECULE: COc1ccc(N2CCN(C(CNC(=O)C3CCCCC3)c3ccc4c(c3)OCO4)CC2)cc1 (stereo not shown) [MMV019662]
CAT: not satisfied
//
MOLECULE: COc1cc2c(cc1OC)C1=NNC(=O)C1=NC(C)(C)C2 [MMV084940]
CAT: satisfied
//
MOLECULE: CN1CCN(c2c3c(c(C#N)c4nc5ccccc5n24)CCC3)CC1 [MMV008127]
CAT: not satisfied
//
MOLECULE: Cn1c(C(=O)c2cccc3ccccc23)nc2ccccc21 [MMV665824]
CAT: satisfied
//
MOLECULE: O=C(Nc1ccccc1O)c1ccc(-c2ccc(Cl)cc2Cl)o1 [MMV665948]
CAT: satisfied
//
MOLECULE: O=C(O)C1Cc2c([nH]c3ccccc23)C(c2ccc(Cl)cc2Cl)N1 (stereo not shown) [MMV008138]
CAT: not satisfied
//
MOLECULE: CCN(CC)CCn1c(=N)n(CC(O)c2ccc(Cl)c(Cl)c2)c2ccccc21.Cl (stereo not shown) [MMV000248]
CAT: satisfied
//
MOLECULE: CCCCCCc1cc2cc(-c3csc(C=Cc4ccccc4)n3)c(=O)oc2cc1O [MMV666692]
CAT: satisfied
//
MOLECULE: CN1c2ccccc2N(C)C1c1ccc2c(c1)OCO2 [MMV666009]
CAT: not satisfied
//
MOLECULE: Cc1cc(Nc2ccc(Cl)cc2)n2nc(C(F)(F)F)nc2n1 [MMV011256]
CAT: not satisfied
//
MOLECULE: CCCCOc1ccc(C(=O)Nc2cc(C)on2)cc1 [MMV007906]
CAT: not satisfied
//
MOLECULE: CCCOCc1cc(CN2CCN(c3cccc(Cl)c3)CC2)c(O)c2ncccc12 [MMV000787]
CAT: satisfied
//
MOLECULE: CN(C)c1ccc(-c2nc3ccc(N)cc3[nH]2)cc1 [MMV666102]
CAT: satisfied
//
MOLECULE: Cc1cccc(N2C(=O)C3C(C2=O)C2(c4ccccc4)C(=O)C3(c3ccccc3)C(c3ccc4c(c3)OCO4)=C2c2ccc3c(c2)OCO3)c1 (stereo not shown) [MMV007228]
CAT: not satisfied

---

Tested on: P. falciparum 3D7 gametocytes
ASSAY_PROCEDURE: alamarBlue gametocyte viability assay, strain 3D7
Format: cell-based, Plasmodium falciparum
CONDITION_NOTES: Malaria Box; DMSO set at 0%, 100 nM epoxomicin set at -100%
Recorded Max Resp values for a group of compounds are listed next.

COMPOUND: COc1ccccc1NC1=C(N2CCCCC2)C(=O)c2ccccc2C1=O
ASSAY_SYSTEM: P. falciparum 3D7 gametocytes
Max Resp (%): -97
--
COMPOUND: COc1cc(C(=O)ON=C(N)Cc2cccc3ccccc23)cc(OC)c1OC
ASSAY_SYSTEM: P. falciparum 3D7 gametocytes
Max Resp (%): -100
--
COMPOUND: O=C(Nc1ccc(C23CC4CC(CC(c5ccccc5)(C4)C2)C3)cc1)c1cccs1
ASSAY_SYSTEM: P. falciparum 3D7 gametocytes
Max Resp (%): 12
--
COMPOUND: c1ccc(/C2=N/c3ccccc3/N=C(/c3ccccc3)c3ccccc32)cc1
ASSAY_SYSTEM: P. falciparum 3D7 gametocytes
Max Resp (%): -5
--
COMPOUND: O=C(Nc1ccc(CN2CCOCC2)cc1)c1ccc(-c2ccc(Br)cc2)o1
ASSAY_SYSTEM: P. falciparum 3D7 gametocytes
Max Resp (%): -41
--
COMPOUND: O=C(Cc1ccccc1)NC(c1ccc(Cl)cc1)c1c(O)ccc2ccccc12 (stereo not drawn)
ASSAY_SYSTEM: P. falciparum 3D7 gametocytes
Max Resp (%): -62
--
COMPOUND: O=C(NC(c1ccccc1)c1ccc2cccnc2c1O)c1ccccc1 (stereo not drawn)
ASSAY_SYSTEM: P. falciparum 3D7 gametocytes
Max Resp (%): -75
--
COMPOUND: COc1ccc(C2c3ccc4ccccc4c3Oc3ncn(CCCn4ccnc4)c(=N)c32)cc1OC (stereo not drawn)
ASSAY_SYSTEM: P. falciparum 3D7 gametocytes
Max Resp (%): -79
--
COMPOUND: CCCCCCc1cc2cc(-c3nc4ccccc4[nH]3)c(=Nc3ccccc3C)oc2cc1O
ASSAY_SYSTEM: P. falciparum 3D7 gametocytes
Max Resp (%): -27
